Test: Conjugator-antibody conjugate maleimide hydrolysis (ring opening) kinetics by reduced LCMS
Type: physicochemical
Conditions: pH 7, time point 3 h
measurement_label: RO (%) LC
Give the value in % but do not write % after it.

Answered examples (8):
> print(dat)
                                   compound  measurement.label  observed.measurement
1  NCC(COC(=O)NCCOCCOCCOCCOCCC(=O)O)N1C(=O)C=CC1=O (stereo not drawn)          RO (%) LC                 75.33
2  CN(C)C(=O)CCCCC(CN)N1C(=O)C=CC1=O (stereo not drawn)          RO (%) LC                 49.46
3  CN(C)C(=O)CCNC(=O)NCC(CN)N1C(=O)C=CC1=O (stereo not drawn)          RO (%) LC                 74.84
4  CN(C)C(=O)CCOCC(N)CN1C(=O)C=CC1=O (stereo not drawn)          RO (%) LC                 60.08
5  CN(C)C(=O)CCOCCC(CN)N1C(=O)C=CC1=O (stereo not drawn)          RO (%) LC                 32.97
6  CN(C)C(=O)CCNC(=O)OCCC(CN)N1C(=O)C=CC1=O (stereo not drawn)          RO (%) LC                 64.20
7  CN(C)C(=O)CN(C)C(=O)OCC(CN)N1C(=O)C=CC1=O (stereo not drawn)          RO (%) LC                 80.15
8  CN(C)C(=O)CCNC(=O)OCC(CCN)N1C(=O)C=CC1=O (stereo not drawn)          RO (%) LC                  6.37

Give recorded RO (%) LC. CC(C)N(CCC(=O)N(C)C)C(=O)OCC(CN)N1C(=O)C=CC1=O (stereo not drawn)
79.93
